- Organism: Bos taurus
- TEST_NAME: Displacement of ethidium bromide from calf thymus DNA by fluorescence binding assay
QUANTITY_KIND: log Ka
The answer should be written as a number, with no unit following it.

Reference set, count: 5
COMPOUND | log Ka
CCCN(CCC)CCCn1c2ccccc2c2nc3ccccc3nc21 | 6.13
CN1CCN(CCCCn2c3ccccc3c3nc4ccccc4nc32)CC1 | 6.04
CCN(CC)CCN1C(=O)/C(=N\NC(=O)CN2CCC(C)CC2)c2ccccc21 | 6.47
CN1CCN(CCn2c3ccc4ccccc4c3c3nc4ccccc4nc32)CC1 | 6.58
O=C(CCN1C(=O)c2cccc3cccc(c23)C1=O)NCCCN1CCOCC1 | 5.72

Let's switch to this compound now.
Ask: Quick one: log Ka for CN1CCN(CC(=O)N/N=C2\C(=O)Nc3ccccc32)CC1 ?
Reply: 5.43
